FYI, the data here is from patent US20220259593A1.

# Test system: K562 CRISPRi cells
# experimental.details: Constant region variant library pooled growth screen, K562
# Type: cell-based, human
# test.conditions: sgRNA constant region variants; activity relative to the original, un-modified constant region cr995
Each entry below carries its reported Mean relative activity.
Lab note: write the figure by itself, no unit.

INSERT INTO results (molecule, measured) VALUES
  ('cr757 (nucleic acid, listed as DNA, chemistry not fully specified) guide: GTTTAAGAGCTAAGCTGGAAACAGCATAGCAACTTTAAATAAGGCTAGTCCGTTATCAACTAGAAATAGTGGCACCGAGTCGGTGCT', 0.02851),
  ('cr867 (nucleic acid, listed as DNA, chemistry not fully specified) guide: GTTTAAGAGCTAAGCTGGAAACAGCATAGCAAGTTTAAATAAGGCTAGTTCGTTATCAACTTGAAAAAGTGGCACCGAGTCGGTGCT', 0.7502),
  ('cr153 (nucleic acid, listed as DNA, chemistry not fully specified) guide: GTTTAAGAGCTAAGCTGGAAACAGCATAGCAAGTTTAAATAAGGCTAGTCCGTTATCAAAATGAAAATTTGGCACCGAGTCGGTGCT', 0.8735);

Now look at this one.
// Mean relative activity lookup, key: cr360 (nucleic acid, listed as DNA, chemistry not fully specified) guide: GTTTAAGAGCTAAGCTGGAAACAGCATAGCAAGTTTAAATAAGGCTAGTCCGTTATCAACTTGAAAAAGTGGCATCGAGTCGATGCT 1.066
